Source of measurements: the supplement of paper PMC6089552

Test system: A673/TR/shEF
TEST_DESCRIPTION: cell viability (LOESS-normalised, relative to median of negative controls) (log2 ratio); higher = more viable cells (less compound effect), active = hit call of the paper (over 3 MAD below the median)
ASSAY_SETUP: 2.5 µM; library screen: screen1; EWS-FLI1 expression: low (doxycycline-induced shRNA knockdown); treatment time: 72 h
About 300 (9.4%) of roughly 3,200 compounds showed activity. The list comes from a sample in which actives are over-represented; it also holds close analogues and randomly drawn compounds.
Respond only with the outcome that fits, drawn from active, inactive

Reference set, count: 6
Cn1c(=O)c2[nH]cnc2n(C)c1=O ... inactive
CCCCC[C@@H](CC(=O)O)C(=O)O ... inactive
Nc1nc(=S)c2[nH]cnc2[nH]1 ... inactive
CCOC(=O)c1ccc(N)cc1 ... inactive
Cc1c(O)c(C(=O)CC(C)C)c2oc3c(C(=O)CC(C)C)c(O)c(C)c(O)c3c2c1O ... inactive
CCCCOCCOC(=O)CCCOc1ccc(Cl)cc1Cl ... inactive

Request: Just curious, what result did Cc1onc(-c2c(Cl)cccc2Cl)c1C(=O)Nc1ccc(Br)cc1F get here?
Response: inactive

Request: Just curious, what result did OC[C@H]1O[C@@H](O[C@H]2[C@H](O)[C@@H](O)C(O)O[C@@H]2CO)[C@H](O)[C@@H](O)[C@@H]1O (stereo partly specified) get here?
Response: inactive

Request: Just curious, what result did N=C1C=CC(=C(c2ccc(N)cc2)c2ccc(N)cc2)C=C1 get here?
Response: active

Request: Just curious, what result did CC1CCC2(CO)CCC3(C)C(=CCC4C5(C)CCC(O)C(C)(C)C5CCC43C)C2C1C (stereo unspecified) get here?
Response: inactive

###

Listing of entries alongside the reported cell viability (log2).
System: A673/TR/shEF
TEST_DESCRIPTION: cell viability (LOESS-normalised, relative to median of negative controls) (log2 ratio); higher = more viable cells (less compound effect), active = hit call of the paper (over 3 MAD below the median)
ASSAY_SETUP: 2.5 µM; library screen: screen1; EWS-FLI1 expression: low (doxycycline-induced shRNA knockdown); treatment time: 72 h
Among all 3,200 compounds or so, about 300 (9.4%) showed activity. Only a selection was taken, and actives are over-represented in it overall.
Hey, just send me the number, nothing else.

Record excerpt, results attached:
CC(=O)O[C@H]1CC[C@]2(C)[C@H]3CC=C4[C@@H]5CC(C)(C)CC[C@]5(C(=O)O)CC[C@@]4(C)[C@]3(C)CC[C@H]2C1(C)C ... 0.0458
COc1ccc2c(c1)OC[C@@H](Cc1ccc(OC)c(OC)c1)C2=O ... 0.0741
CCc1c(C)c(C#N)c2nc3ccccc3n2c1N1CCN(C)CC1 ... 0.0375
COc1ccc2c(c1)OCC(Cc1ccc(OC)c(OC(C)=O)c1)C2=O (stereo not given) ... -0.0188

With those in mind, consider the next compound.
Request: Look up and state reported cell viability (log2) for COCc1cc(C)nc(SCC(=O)NC(C)(C)C)c1C#N
Response: -0.0386

###

System: A673/TR/shEF
TEST_DESCRIPTION: cell viability (LOESS-normalised, relative to median of negative controls) (log2 ratio); higher = more viable cells (less compound effect), active = hit call of the paper (over 3 MAD below the median)
ASSAY_SETUP: 0.25 µM; library screen: screen1; EWS-FLI1 expression: high (no doxycycline); treatment time: 72 h
About 300 (9.4%) of roughly 3,200 compounds showed activity. What follows is part of a selection rich in actives, with near analogues and random picks from the rest.
PROPERTY_LABEL: cell viability (log2)

Record excerpt, results attached:
N#Cc1c2c(c(NCCCO)n3c1nc1ccccc13)CCC2 ... 0.146 (inactive)
COc1ccc(C2COc3c(ccc(O)c3OC)C2)c(OC)c1O (stereo not given) ... 0.108 (inactive)
Brc1ccc(CN2CCN(Cc3ccco3)CC2)cc1 ... 0.0694 (inactive)

Request: Look up and state reported cell viability (log2) for OC[C@H]1O[C@@](CO)(O[C@H]2O[C@H](CO)[C@@H](O)[C@H](O)[C@H]2O)[C@@H](O[C@H]2O[C@H](CO)[C@@H](O)[C@H](O)[C@H]2O)[C@@H]1O
Response: 0.0123 (inactive)

Request: Look up and state reported cell viability (log2) for CCOC([O-])=Nc1c[n+](N2CCOCC2)no1
Response: 0.0951 (inactive)

###

Tested on: A673/TR/shEF
TEST_DESCRIPTION: cell viability (LOESS-normalised, relative to median of negative controls) (log2 ratio); higher = more viable cells (less compound effect), active = hit call of the paper (over 3 MAD below the median)
ASSAY_SETUP: 2.5 µM; library screen: screen1; EWS-FLI1 expression: low (doxycycline-induced shRNA knockdown); treatment time: 72 h
Among all 3,200 compounds or so, about 300 (9.4%) showed activity. The sample holds actives, similar compounds and a random draw of the others, so the mix is not that of the screen.
PROPERTY_LABEL: cell viability (log2)
Hey, just send me the number, nothing else.

Record excerpt, results attached:
CC(=O)O[C@H]1CC[C@]2(C)[C@H]3C(=O)C=C4[C@@H]5C[C@@](C)(C(=O)O)CC[C@]5(C)CC[C@@]4(C)[C@]3(C)CC[C@H]2C1(C)C ... 0.0507
COc1cc(Cc2cnc(N)nc2N)cc(OC)c1OC ... 0.321
C=CCNC(=O)c1ccc(CN(c2cccc(Cl)c2)S(C)(=O)=O)cc1 ... 0.133
N#Cc1c2c(c(NCCCO)n3c1nc1ccccc13)CCC2 ... -0.0597
COc1ccccc1C1NC(=S)NC(C)=C1C(=O)Nc1ccccc1Cl (stereo not given) ... 0.0425

Request: Look up and state reported cell viability (log2) for CCOC(=O)c1c[nH]c2c(Cl)c(Cl)ccc2c1=O
Response: 0.176

Request: Look up and state reported cell viability (log2) for O=C(O)/C=C(/CC(=O)O)C(=O)O
Response: 0.0214

Request: Look up and state reported cell viability (log2) for COc1ccc(CN2CCN(Cc3cc(OC)c(OC)c(OC)c3)CC2)cc1
Response: -0.0868

Request: Look up and state reported cell viability (log2) for CCCSc1ccc2nc(NC(=O)OC)[nH]c2c1
Response: -1.04

Request: Look up and state reported cell viability (log2) for CC1(C)C(=O)C=C[C@@]2(C)C1CC(=O)[C@@]1(C)C3=CC(=O)O[C@@H](c4ccoc4)[C@]3(C)CCC12 (stereo not given in full)
Response: 0.163

###

Test system: A673/TR/shEF
TEST_DESCRIPTION: cell viability (LOESS-normalised, relative to median of negative controls) (log2 ratio); higher = more viable cells (less compound effect), active = hit call of the paper (over 3 MAD below the median)
ASSAY_SETUP: 0.025 µM; library screen: screen2; EWS-FLI1 expression: low (doxycycline-induced shRNA knockdown); treatment time: 72 h
Screen size: about 3,200 compounds; about 300 (9.4%) showed activity. This is one part of a sample in which actives are shown more often than they occur.
PROPERTY_LABEL: cell viability (log2)

Record excerpt, results attached:
Nc1nc(=S)c2[nH]cnc2[nH]1 ... 0.0155 (inactive)
COc1c(C)c2c(c(O)c1C/C=C(\C)CCC(=O)O)C(=O)OC2 ... 0.0434 (inactive)
Cn1cnc([N+](=O)[O-])c1Sc1ncnc2nc[nH]c12 ... 0.0997 (inactive)

Request: Look up and state reported cell viability (log2) for O=c1[nH]cc(F)c(=O)[nH]1
Response: 0.0564 (inactive)

###

Tested on: A673/TR/shEF
TEST_DESCRIPTION: cell viability (LOESS-normalised, relative to median of negative controls) (log2 ratio); higher = more viable cells (less compound effect), active = hit call of the paper (over 3 MAD below the median)
ASSAY_SETUP: 8.3 µM; library screen: screen3; EWS-FLI1 expression: low (doxycycline-induced shRNA knockdown); treatment time: 72 h
In all, about 3,200 compounds went through this assay and about 300 (9.4%) showed activity. Shown is part of a subset that was picked to be rich in actives.
Listing of entries alongside the reported cell viability (log2).
Hey, just send me the number, nothing else.

Request: Look up and state reported cell viability (log2) for Nc1ccn([C@@H]2CS[C@H](CO)O2)c(=O)n1
Response: 0.0703

Request: Look up and state reported cell viability (log2) for NC(=O)c1ncn([C@@H]2O[C@H](CO)[C@@H](O)[C@H]2O)c1N
Response: 0.126

###

Tested on: A673/TR/shEF
TEST_DESCRIPTION: cell viability (LOESS-normalised, relative to median of negative controls) (log2 ratio); higher = more viable cells (less compound effect), active = hit call of the paper (over 3 MAD below the median)
ASSAY_SETUP: 25 µM; library screen: screen3; EWS-FLI1 expression: high (no doxycycline); treatment time: 72 h
Among all 3,200 compounds or so, about 300 (9.4%) showed activity. The full list was thinned out, with actives kept by preference.
Respond only with the outcome that fits, drawn from t for active, f for inactive

Reference set, count: 3
Nc1cccc(-c2cc3c(Oc4cccc(O)c4)ncnc3[nH]2)c1 ... t
C[C@H](NCCc1ccc(O)cc1)[C@H](O)c1ccc(O)cc1 ... f
CO[C@H]1C[C@@H]2CC[C@@H](C)[C@@](O)(O2)C(=O)C(=O)N2CCCC[C@H]2C(=O)O[C@H]([C@H](C)C[C@@H]2CC[C@@H](O)[C@H](OC)C2)CC(=O)[C@H](C)/C=C(\C)[C@@H](O)[C@@H](OC)C(=O)[C@H](C)C[C@H](C)/C=C/C=C/C=C/1C ... t

Request: Just curious, what result did COc1c(C)c2c(c(O)c1C/C=C(\C)CCC(=O)OCCN1CCOCC1)C(=O)OC2 get here?
Response: t

Request: Just curious, what result did C#Cc1cccc(Nc2ncnc3cc(OCCOC)c(OCCO)cc23)c1 get here?
Response: f
